- Study target: human sphingosine-1-phosphate receptor 1 (S1P1) (Homo sapiens (Human), UniProt P21453)
- Sequence (P21453 whole entry, looked up): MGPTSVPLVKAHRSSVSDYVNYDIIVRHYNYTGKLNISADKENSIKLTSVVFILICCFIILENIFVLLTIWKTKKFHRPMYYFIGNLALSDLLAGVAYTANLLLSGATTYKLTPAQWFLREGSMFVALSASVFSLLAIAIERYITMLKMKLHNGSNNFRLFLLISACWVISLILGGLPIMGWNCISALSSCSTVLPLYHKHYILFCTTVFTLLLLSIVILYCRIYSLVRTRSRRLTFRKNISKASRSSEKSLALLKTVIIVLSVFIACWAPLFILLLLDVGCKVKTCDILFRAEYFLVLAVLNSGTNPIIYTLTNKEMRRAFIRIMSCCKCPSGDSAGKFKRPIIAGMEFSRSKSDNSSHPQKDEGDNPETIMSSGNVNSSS
- Protocol details: Inhibition of cAMP production (HTRF cAMP HiRange), S1P1 CHO-K1 cells
- Type: cell-based
- Run conditions: inhibition of cAMP production, S1P1 CHO-K1 cells
I'd appreciate it if you could supply hS1P1 cAMP pEC50 values for the items below.

human sphingosine-1-phosphate receptor 1 (S1P1) (Homo sapiens (Human), UniProt P21453) / hS1P1 cAMP pEC50 / CC(C)n1nnc2cc(-c3noc(-c4ccccc4N)n3)ccc21 [Compound 576] : value?
>6.5

Notebook: pull reported hS1P1 cAMP pEC50 for human sphingosine-1-phosphate receptor 1 (S1P1) (Homo sapiens (Human), UniProt P21453), entry CC(C)n1nnc2cc(-c3noc(-c4ccc(F)cc4)n3)ccc21 [Compound 255]
<6.5

Lab note: need hS1P1 cAMP pEC50 for CCC1(CC)CC(=O)c2cc(-c3nc(-c4cccnc4C(F)(F)F)no3)ccc2O1 [Compound 562] on human sphingosine-1-phosphate receptor 1 (S1P1) (Homo sapiens (Human), UniProt P21453), anyone have it?
>6.5

Query for human sphingosine-1-phosphate receptor 1 (S1P1) (Homo sapiens (Human), UniProt P21453): what hS1P1 cAMP pEC50 does the record show for COc1ccccc1-c1noc(-c2ccc3c(c2)NC(=O)CN3)n1 [Compound 614] ?
<6.5

# returns recorded hS1P1 cAMP pEC50 (system: human sphingosine-1-phosphate receptor 1 (S1P1) (Homo sapiens (Human), UniProt P21453)) for CC(C)CCn1nnc2cc(-c3nc(-c4ccc(C(F)(F)F)c(F)c4)no3)ccc21 [Compound 122]
<6.5

Item Cc1ccncc1-c1noc(-c2ccc3nnn(CC(C)C)c3c2)n1 [Compound 3] with human sphingosine-1-phosphate receptor 1 (S1P1) (Homo sapiens (Human), UniProt P21453) - hS1P1 cAMP pEC50?
>6.5

Form: Entry = CCC1(CC)CC(=O)c2cc(-c3nsc(-c4ccc5c(c4)nnn5C(C)C)n3)ccc2O1 [Compound 143] | System = human sphingosine-1-phosphate receptor 1 (S1P1) (Homo sapiens (Human), UniProt P21453) | hS1P1 cAMP pEC50 = ____
<6.5

Recall the recorded hS1P1 cAMP pEC50 for CCC1(CC)CC(=O)c2cc(-c3nc(-c4ccccc4C)no3)ccc2O1 [Compound 66] with human sphingosine-1-phosphate receptor 1 (S1P1) (Homo sapiens (Human), UniProt P21453) and state it.
>6.5

* * *

- Study target: human sphingosine-1-phosphate receptor 1 (S1P1) (Homo sapiens (Human), UniProt P21453)
- Protocol details: Inhibition of cAMP production (HTRF cAMP HiRange), S1P1 CHO-K1 cells
- Assay type: cell-based
- Run conditions: inhibition of cAMP production, S1P1 CHO-K1 cells
Please provide measured hS1P1 cAMP pEC50 for the entries that follow.

// hS1P1 cAMP pEC50 lookup, key: CC(C)n1nnc2cc(-c3noc(C4CCC(F)(F)CC4)n3)ccc21 [Compound 125]
<6.5

I would be grateful if you could share the reported hS1P1 cAMP pEC50 for CCC1(CC)CC(=O)c2cc(-c3nc(-c4ncccn4)no3)ccc2O1 [Compound 640] .
<6.5

For the molecule shown here, O=C1c2cc(-c3nc(-c4cccnc4)no3)ccc2OC(CO)(CO)C1Br (stereo not shown) [Compound 479] , give the reported hS1P1 cAMP pEC50.
<6.5

Entry CCC1(CC)CC(=O)c2cc(-c3nc(-c4ccnc(OC)c4)no3)ccc2O1 [Compound 38] has what hS1P1 cAMP pEC50?
<6.5

Which hS1P1 cAMP pEC50 is reported for this molecule? CCCCC1CC(=O)c2ccc(-c3nc(-c4cccnc4)no3)cc2O1 (stereo not shown) [Compound 633]
<6.5

Which value of hS1P1 cAMP pEC50 has been reported for Cc1cc(C)cc(-c2noc(-c3ccc4c(c3)nnn4C(C)C)n2)c1 [Compound 204] in the records?
<6.5

Look up hS1P1 cAMP pEC50: COc1cccc(OC)c1-c1noc(-c2ccc3c(cnn3C(C)C)c2)n1 [Compound 335]
<6.5

Could you tell me which hS1P1 cAMP pEC50 is on file for CCC1(CC)CC(=O)c2cc(-c3nc(-c4ccn[nH]4)no3)ccc2O1 [Compound 470] ?
<6.5

Reported hS1P1 cAMP pEC50 for CCC1(CC)CC(=O)c2cc(-c3nc(-c4cn[nH]c4)no3)ccc2O1 [Compound 469] : what is it?
>6.5

Recorded hS1P1 cAMP pEC50 of C=CCNc1ccc(-c2nc(-c3ccc4[nH]nnc4c3)no2)cc1C#N [Compound 145] , please.
>6.5

I would be grateful if you could share the reported hS1P1 cAMP pEC50 for O=C1CC(CO)(CO)Oc2ccc(-c3nc(-c4cccnc4)no3)cc21 [Compound 478] .
<6.5

What hS1P1 cAMP pEC50 value was documented for this molecule, CCC1(CC)CC(=O)c2cc(-c3nc(-c4ccc5[nH]c(=O)[nH]c5c4)no3)ccc2O1 [Compound 539] ?
>6.5

For the molecule COc1cccnc1-c1noc(-c2ccc3c(c2)nnn3C(C)C)n1 [Compound 627] , what hS1P1 cAMP pEC50 is on record?
<6.5
